Target Or System: T1, recombinant OSMR protein (Sino Biologicals, 11226-H08H), extracellular domain of OSMR (UniProt Q99650 28-740)
T1 construct: extracellular domain; also called OSMR antigen
T1 sequence (looked up): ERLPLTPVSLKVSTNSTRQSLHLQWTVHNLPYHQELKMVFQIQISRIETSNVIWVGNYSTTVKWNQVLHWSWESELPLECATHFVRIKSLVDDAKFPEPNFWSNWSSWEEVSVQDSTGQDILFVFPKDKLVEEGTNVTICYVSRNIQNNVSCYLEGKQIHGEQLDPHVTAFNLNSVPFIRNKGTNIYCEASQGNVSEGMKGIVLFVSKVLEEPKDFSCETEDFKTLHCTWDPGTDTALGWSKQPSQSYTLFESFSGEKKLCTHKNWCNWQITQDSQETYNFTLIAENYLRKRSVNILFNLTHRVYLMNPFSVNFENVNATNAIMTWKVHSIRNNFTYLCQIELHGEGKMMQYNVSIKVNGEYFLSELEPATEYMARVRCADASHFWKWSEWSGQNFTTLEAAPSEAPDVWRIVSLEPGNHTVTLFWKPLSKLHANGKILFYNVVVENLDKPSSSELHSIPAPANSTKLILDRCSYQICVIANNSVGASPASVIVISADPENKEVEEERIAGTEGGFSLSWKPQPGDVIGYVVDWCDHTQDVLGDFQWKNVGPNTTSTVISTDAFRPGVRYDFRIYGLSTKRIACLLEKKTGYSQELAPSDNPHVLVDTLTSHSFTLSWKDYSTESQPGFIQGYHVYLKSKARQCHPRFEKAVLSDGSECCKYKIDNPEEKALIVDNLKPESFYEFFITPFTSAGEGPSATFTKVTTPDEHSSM
Assay Remarks: screening of full-length IgG1 clones on recombinant OSMR extracellular domain
Observed Property: binding result

Check the records and state binding result for H09 monoclonal antibody (antibody, V domains shown, also called H09 mAb) VH: EVQLVQSGAEVKKPGASVKVSCKASGYTFTGYYMHWVRQAPGHGLEWMGWINPNSGGTNYAQKFQGRVTMTRDTSISTAYMELSGLRSDDTAVYYCARDKGAWSGSYPGYNWFDPWGQGTLVTVSS VL: QAVVTQPPSASGTPGQRVTISCSGSSSTIGTNPVNWYRHLPGTAPKLLIYSNNQRPSGVPDRVSGSKSGTSASLAISGLQSEDEADYYCATLDDSLNGYVFGTGTKVTVL
binds

Return value of binding result for input B01 monoclonal antibody (antibody, V domains shown, also called B01 mAb) VH: QVQLVQSGAEVKKPGASVKVSCKASGYSFTSYFIHWVRQAPGQGLEWMGIINPAGGNTNYAQRFQGRVTMTRDTSTSTVYMELSSLRSDDTAVYYCARDKDYGEGAFDLWGQGTMVSVSS VL: QSALTQPPSVSGAPGQRVTISCTGSSSNIGAGYDVHWYQQLPGTAPKLLIYGNSNRPSGVPDRFSGSKSGTSASLAITGLQAEDEADYYCQSYDSSLSGWVFGGGTKVTVL , no commentary.
binds

Entry B10 monoclonal antibody (antibody, V domains shown, also called B010; B10 mAb) VH: QVQLVQSGAEVKKPGASVKVSCKASGYTFTSYYMHWVRQAPGQGLEWMGIINPSGGSTSYAQKFQGRVTMTRDTSTSTVYMELSSLRSEDTAVYYCARDKAHDSSGYYDAFDIWGQGTTVTVSS VL: QSALTQPPSASGTPGQRVTISCSGSGSNIGSNTVNWYQQLPGTAPRLLIYRNNQRPSGVPDRFSGSKSGTSASLAISGLESEDEADYFCATWDDSLNDYVFATGTQLTVL needs its binding result filled in; supply it.
binds

Quick one: give measured binding result for H12 monoclonal antibody (antibody, V domains shown, also called H12 mAb) VH: EVQLVQSGAEVKKPGSSVKVSCKTSGGTFSSYAISWVRQAPGQGLEWMGGIIPISGTANYPQKLQGRVTITADESTSTAYMELSSLRSEDTAMYYCARGDYCNGGSCSYTNYYGMDVWGQGTTVIVSS VL: QSALTQPPSVSVAPGKTAMITCGGTNIRSQNVHWYQQKPGQAPVLVIYWDSSRPSGIPERISGSNSGSTATLTISRVEAGDEADYYCQVWDATRDHVVFGGGTKVTVL
binds
